molecular target: human cathepsin K (UniProt P43236, Y175D/V274L, species not given); test: Cathepsin K Assay; type: biochemical; conditions: IP from dose response curve; Z-Leu-Arg-AMC substrate, pH 5.5; read-out: hrbCat K (IP (nM))
# condition met = IC50 below 0.8 nM (exclusive); condition not met = IC50 at/above 0.8 nM

[
  {
    "MOLECULE SMILES": "C[C@@H](C#N)NC(=O)[C@@H]1CCCC[C@H]1c1nn(-c2ccc(F)cc2)c(CO)c1-c1ccc(N2CCS(=O)(=O)CC2)cc1",
    "TARGET": "human cathepsin K (UniProt P43236, Y175D/V274L, species not given)",
    "CLASS": "condition not met"
  },
  {
    "MOLECULE SMILES": "COc1ccc(-n2cc(-c3ccc(N4CCS(=O)(=O)CC4)cc3)c([C@@H]3CCCC[C@H]3C(=O)NC3(C#N)CC3)n2)nn1",
    "TARGET": "human cathepsin K (UniProt P43236, Y175D/V274L, species not given)",
    "CLASS": "condition not met"
  },
  {
    "MOLECULE SMILES": "N#CC1(NC(=O)[C@@H]2CCCC[C@H]2c2nn(-c3ccc(Cl)cn3)cc2-c2ccc(N3CCS(=O)(=O)CC3)cc2)CC1",
    "TARGET": "human cathepsin K (UniProt P43236, Y175D/V274L, species not given)",
    "CLASS": "condition not met"
  },
  {
    "MOLECULE SMILES": "N#CC1(NC(=O)[C@@H]2CCCC[C@H]2c2nn(-c3ccc(C(O)(C(F)(F)F)C(F)(F)F)cc3)cc2-c2ccc(N3CCS(=O)(=O)CC3)cc2)CC1",
    "TARGET": "human cathepsin K (UniProt P43236, Y175D/V274L, species not given)",
    "CLASS": "condition not met"
  },
  {
    "MOLECULE SMILES": "CC(C)OC(=O)N1CC(c2ccc(-c3cn(-c4ccc(F)cc4)nc3[C@@H]3CCCC[C@H]3C(=O)NC3(C#N)CC3)cc2)C1",
    "TARGET": "human cathepsin K (UniProt P43236, Y175D/V274L, species not given)",
    "CLASS": "condition met"
  },
  {
    "MOLECULE SMILES": "N#CC1(NC(=O)[C@@H]2CCCC[C@H]2c2nn(-c3cncc(Cl)c3)cc2-c2ccc(N3CCS(=O)(=O)CC3)cc2)CC1",
    "TARGET": "human cathepsin K (UniProt P43236, Y175D/V274L, species not given)",
    "CLASS": "condition met"
  }
]

====

target: human cathepsin K (UniProt P43236, Y175D/V274L, species not given); assay: Cathepsin K Assay; type: biochemical; details: IP from dose response curve; Z-Leu-Arg-AMC substrate, pH 5.5; read-out: hrbCat K (IP (nM))
Listing of entries alongside the reported IC50.

[
  {
    "COMPOUND": "N#CC1(NC(=O)[C@@H]2CCCC[C@H]2c2nn(-c3ncc(F)cc3Cl)cc2-c2ccc(N3CCS(=O)(=O)CC3)cc2)CC1",
    "TARGET": "human cathepsin K (UniProt P43236, Y175D/V274L, species not given)",
    "IC50 / nM": 3.26
  },
  {
    "COMPOUND": "CN=S1(=O)CCN(c2ccc(-c3cn(-c4ncccc4F)nc3[C@@H]3CC(F)(F)CC[C@H]3C(=O)NC3(C#N)CC3)cc2)CC1",
    "TARGET": "human cathepsin K (UniProt P43236, Y175D/V274L, species not given)",
    "IC50 / nM": 22
  },
  {
    "COMPOUND": "CN=S1(=O)CCN(c2ccc(-c3cn(-c4ccc(F)cn4)nc3[C@@H]3CC[C@H](F)C[C@H]3C(=O)NC3(C#N)CC3)cc2)CC1 [Example 17]",
    "TARGET": "human cathepsin K (UniProt P43236, Y175D/V274L, species not given)",
    "IC50 / nM": 3.22
  },
  {
    "COMPOUND": "CC(C)[C@@H](C#N)NC(=O)[C@@H]1CC(F)(F)CC[C@H]1c1nn(-c2ccc(F)cn2)c(CO)c1-c1ccc(N2CCS(=O)(=O)CC2)cc1",
    "TARGET": "human cathepsin K (UniProt P43236, Y175D/V274L, species not given)",
    "IC50 / nM": 2.68
  },
  {
    "COMPOUND": "C[C@@H](C#N)NC(=O)[C@@H]1CC(F)(F)CC[C@H]1c1nn(-c2ccc(F)cn2)c(CO)c1-c1ccc(N2CCS(=O)(=O)CC2)cc1",
    "TARGET": "human cathepsin K (UniProt P43236, Y175D/V274L, species not given)",
    "IC50 / nM": 1.24
  },
  {
    "COMPOUND": "C[C@@H](C#N)NC(=O)[C@@H]1CC(F)(F)CC[C@H]1c1nn2ccccc2c1-c1ccc(N2CCS(=O)(=O)CC2)cc1",
    "TARGET": "human cathepsin K (UniProt P43236, Y175D/V274L, species not given)",
    "IC50 / nM": 2.66
  },
  {
    "COMPOUND": "C[C@@H](C#N)NC(=O)[C@@H]1C[C@@H](F)CC[C@H]1c1nn(-c2ncccc2F)cc1-c1ccc(N2CCS(=O)(=O)CC2)cc1",
    "TARGET": "human cathepsin K (UniProt P43236, Y175D/V274L, species not given)",
    "IC50 / nM": 6.89
  },
  {
    "COMPOUND": "CC1(C)CC[C@@H](c2nn(-c3ccc(F)cc3)cc2-c2ccc(N3CCS(=O)(=O)CC3)cc2)[C@H](C(=O)NC2(C#N)CC2)C1 (single isomer, unassigned) [Example 127]",
    "TARGET": "human cathepsin K (UniProt P43236, Y175D/V274L, species not given)",
    "IC50 / nM": 1.5
  },
  {
    "COMPOUND": "N#CC1(NC(=O)[C@@H]2C[C@@H](F)CC[C@H]2c2nn(-c3ccc(F)cn3)cc2-c2ccc(N3CCS(=N)(=O)CC3)cc2)CC1 [Example 14]",
    "TARGET": "human cathepsin K (UniProt P43236, Y175D/V274L, species not given)",
    "IC50 / nM": 2
  },
  {
    "COMPOUND": "C[C@@H](C#N)NC(=O)[C@@H]1C[C@@H](F)CC[C@H]1c1nn(-c2ccc(F)cn2)cc1-c1ccc(N2CCS(=N)(=O)CC2)cc1",
    "TARGET": "human cathepsin K (UniProt P43236, Y175D/V274L, species not given)",
    "IC50 / nM": 1.43
  },
  {
    "COMPOUND": "CN=S1(=O)CCN(c2ccc(-c3cn(-c4ncccc4F)nc3[C@@H]3CC(F)(F)CC[C@H]3C(=O)N[C@H](C#N)C(C)C)cc2)CC1",
    "TARGET": "human cathepsin K (UniProt P43236, Y175D/V274L, species not given)",
    "IC50 / nM": 8.79
  },
  {
    "COMPOUND": "CN=S1(=O)CCN(c2ccc(-c3c([C@@H]4CCCC[C@H]4C(=O)N[C@@H](C)C#N)nn(-c4ncccc4F)c3C)cc2)CC1",
    "TARGET": "human cathepsin K (UniProt P43236, Y175D/V274L, species not given)",
    "IC50 / nM": 5.48
  },
  {
    "COMPOUND": "N#CC(CC(F)(F)F)NC(=O)[C@@H]1CC(F)(F)CC[C@H]1c1nn2ccccc2c1-c1ccc(N2CCS(=O)(=O)CC2)cc1 (single isomer, unassigned) [Example 74]",
    "TARGET": "human cathepsin K (UniProt P43236, Y175D/V274L, species not given)",
    "IC50 / nM": 7.69
  },
  {
    "COMPOUND": "CN=S1(=O)CCN(c2ccc(-c3c([C@@H]4CCCC[C@H]4C(=O)NC4(C#N)CC4)nn(-c4ncccc4F)c3C)cc2)CC1",
    "TARGET": "human cathepsin K (UniProt P43236, Y175D/V274L, species not given)",
    "IC50 / nM": 13.9
  },
  {
    "COMPOUND": "N#CC1(NC(=O)[C@@H]2CCC(F)(F)C[C@H]2c2nn(-c3ccc(F)cc3)cc2-c2ccc(N3CCS(=O)(=O)CC3)cc2)CC1",
    "TARGET": "human cathepsin K (UniProt P43236, Y175D/V274L, species not given)",
    "IC50 / nM": 2.32
  },
  {
    "COMPOUND": "N#CC1(NC(=O)[C@@H]2CCC(F)(F)C[C@H]2c2nn(-c3ccc(Cl)cn3)cc2-c2ccc(N3CCS(=O)(=O)CC3)cc2)CC1",
    "TARGET": "human cathepsin K (UniProt P43236, Y175D/V274L, species not given)",
    "IC50 / nM": 1.43
  },
  {
    "COMPOUND": "Cc1c(-c2ccc(N3CCS(=O)(=O)CC3)cc2)c([C@@H]2CCC(F)(F)C[C@H]2C(=O)NC2(C#N)CC2)nn1-c1ccc(F)cc1",
    "TARGET": "human cathepsin K (UniProt P43236, Y175D/V274L, species not given)",
    "IC50 / nM": 0.67
  },
  {
    "COMPOUND": "CN=S1(=O)CCN(c2ccc(-c3c([C@@H]4CCCC[C@H]4C(=O)N[C@H](C#N)C(C)C)nn(-c4ncccc4F)c3C)cc2)CC1",
    "TARGET": "human cathepsin K (UniProt P43236, Y175D/V274L, species not given)",
    "IC50 / nM": 19.2
  },
  {
    "COMPOUND": "N#CC1(NC(=O)[C@@H]2CC(F)(F)CC[C@H]2c2nn(-c3ccc(F)cn3)c(CO)c2-c2ccc(N3CCS(=O)(=O)CC3)cc2)CC1 [Example 70]",
    "TARGET": "human cathepsin K (UniProt P43236, Y175D/V274L, species not given)",
    "IC50 / nM": 1.9
  },
  {
    "COMPOUND": "N#CC1(NC(=O)[C@@H]2CCCC[C@H]2c2nn(-c3ccc(F)cn3)c(CO)c2-c2ccc(N3CCS(=O)(=O)CC3)cc2)CC1",
    "TARGET": "human cathepsin K (UniProt P43236, Y175D/V274L, species not given)",
    "IC50 / nM": 11
  },
  {
    "COMPOUND": "N#CC1(NC(=O)[C@@H]2C[C@@H](F)CC[C@H]2c2nn(-c3ccc(F)cn3)cc2-c2ccc(N3CCS(=O)(=O)CC3)cc2)CC1",
    "TARGET": "human cathepsin K (UniProt P43236, Y175D/V274L, species not given)",
    "IC50 / nM": 0.89
  },
  {
    "COMPOUND": "Cc1c(-c2ccc(N3CCS(=O)(=O)CC3)cc2)c([C@@H]2CCC(F)(F)C[C@H]2C(=O)N[C@H](C#N)C(C)C)nn1-c1ccc(F)cn1",
    "TARGET": "human cathepsin K (UniProt P43236, Y175D/V274L, species not given)",
    "IC50 / nM": 1.63
  },
  {
    "COMPOUND": "CN=S1(=O)CCN(c2ccc(-c3cn(-c4ncccc4F)nc3[C@@H]3CC[C@H](F)C[C@H]3C(=O)N[C@H](C#N)C(C)C)cc2)CC1",
    "TARGET": "human cathepsin K (UniProt P43236, Y175D/V274L, species not given)",
    "IC50 / nM": 14.3
  },
  {
    "COMPOUND": "Cc1c(-c2ccc(N3CCS(=N)(=O)CC3)cc2)c([C@@H]2CCCC[C@H]2C(=O)NC2(C#N)CC2)nn1-c1ncccc1F",
    "TARGET": "human cathepsin K (UniProt P43236, Y175D/V274L, species not given)",
    "IC50 / nM": 14
  }
]
